Provenance of the data: patent US20210347873A1

assayTarget: T1, human BLyS (full length, arginine to histidine at position 132) on CHO-K1 cells (human, UniProt Q9Y275 1-285)
T1 construct: also called hBLyS; CHO-K1 hBLyS
T1 sequence (Q9Y275 whole entry R130H): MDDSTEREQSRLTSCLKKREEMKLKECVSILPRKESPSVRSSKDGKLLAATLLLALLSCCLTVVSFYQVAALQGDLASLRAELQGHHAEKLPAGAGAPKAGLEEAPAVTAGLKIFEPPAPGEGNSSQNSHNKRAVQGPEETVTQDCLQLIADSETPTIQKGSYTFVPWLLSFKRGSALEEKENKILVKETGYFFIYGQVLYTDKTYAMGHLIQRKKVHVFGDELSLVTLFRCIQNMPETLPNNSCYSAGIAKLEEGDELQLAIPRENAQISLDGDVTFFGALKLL
experimentNotes: flow cytometry, CHO-K1 hBLyS cells, antibody 0.0213 nM
Listing of recorded MFI by entry.
Returns: string containing the number followed by the unit.

Below are worked cases with known answers.
binder="L1D12 (antibody, V domains shown, From a human naive scFv phage library; also called human BLyS antibody L1D12; LID12) VH: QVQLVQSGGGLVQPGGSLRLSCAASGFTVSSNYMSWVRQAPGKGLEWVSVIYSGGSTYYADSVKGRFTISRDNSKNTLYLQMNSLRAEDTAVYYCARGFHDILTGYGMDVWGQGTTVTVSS VL: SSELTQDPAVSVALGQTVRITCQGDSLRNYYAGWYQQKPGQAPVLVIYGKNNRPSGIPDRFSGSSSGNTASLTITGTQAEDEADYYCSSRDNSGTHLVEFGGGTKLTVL" observedmeasurement="89.5 MFI"
binder="8E7D9C7F5 (antibody, V domains shown, Mouse hybridoma monoclonal antibody purified on Protein G) VH: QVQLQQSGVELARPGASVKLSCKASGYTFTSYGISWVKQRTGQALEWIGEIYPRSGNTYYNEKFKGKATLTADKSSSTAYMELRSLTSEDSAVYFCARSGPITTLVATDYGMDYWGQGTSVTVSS VL: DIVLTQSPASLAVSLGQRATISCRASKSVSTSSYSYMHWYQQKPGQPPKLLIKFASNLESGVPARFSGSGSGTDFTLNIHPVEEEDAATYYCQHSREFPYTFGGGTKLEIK" observedmeasurement="122 MFI"

// query # MFI lookup, item 111D10D6G3 (antibody, V domains shown, Mouse hybridoma monoclonal antibody purified on Protein G) VH: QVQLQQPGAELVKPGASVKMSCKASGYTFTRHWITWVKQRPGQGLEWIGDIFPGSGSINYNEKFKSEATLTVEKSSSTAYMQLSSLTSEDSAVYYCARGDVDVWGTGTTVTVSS VL: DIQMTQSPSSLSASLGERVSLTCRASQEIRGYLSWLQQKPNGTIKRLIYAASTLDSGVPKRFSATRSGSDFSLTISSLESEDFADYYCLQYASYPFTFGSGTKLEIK
// result 65.5 MFI
